- Subject Of Test: BRD4(1) (amino acids 44-168) (Homo sapiens (Human), UniProt O60885)
- Assay Remarks: BRD4 binding strength, TR-FRET (HTRF) assay of BRD4(1) / acetylated histone H4 peptide interaction
- Condition Details: inhibition of BRD4(1)/Ac-H4 peptide interaction
# IC50 per entry
Please format your answer as a value with the unit trailing.

Use the examples below as a reference point.
Molecule	IC50
Cc1nc(CC2C=C(c3ccc(Cl)cc3)c3ccccc3-n3c(C)nnc32)no1 (centres unmarked)	80 nM
Cc1nnc2n1-c1ccccc1C(c1ccc(Cl)cc1)=C[C@H]2CC(=O)N1CC2CCC(C1)O2 (single isomer, unassigned; (-))	450 nM
Cc1nnc2n1-c1ccccc1C(c1ccc(Cl)cc1)=CC2CC(=O)N1CC(Oc2ccccc2)C1 (centres unmarked)	220 nM
CCOC(=O)CC1C=C(c2cccc(Cl)c2)c2ccccc2-n2c(C)nnc21 (centres unmarked)	230 nM
Cc1noc(CC2C=C(c3ccc(Cl)cc3)c3ccccc3-n3c(C)nnc32)n1 (centres unmarked)	90 nM

# returns recorded IC50 (system: BRD4(1) (amino acids 44-168) (Homo sapiens (Human), UniProt O60885)) for Cc1nnc2n1-c1ccccc1C(c1ccc(Cl)cc1)=CC2CC(=O)Nc1ccc2c(c1)CC(=O)N2 (centres unmarked) [Example 20] 240 nM

Entry CCNC(=O)CC1C=C(c2ccc(Cl)cc2)c2ccccc2-n2c(C)nnc21 (centres unmarked) [Example 12] please 130 nM

* * *

- Subject Of Test: BRD4(1) (amino acids 44-168) (Homo sapiens (Human), UniProt O60885)
- Assay Remarks: BRD4 binding strength, TR-FRET (HTRF) assay of BRD4(1) / acetylated histone H4 peptide interaction
- Condition Details: inhibition of BRD4(1)/Ac-H4 peptide interaction
# IC50 per entry
Please format your answer as a value with the unit trailing.

Use the examples below as a reference point.
Compound	Quantity	Reported Result
Cc1nnc2n1-c1ccccc1C(c1ccc(Cl)cc1)=CC2CC(=O)N1CC2(COC2)C1 (stereo in doubt) [Example 4]	IC50	130 nM
Cc1nnc(CC2C=C(c3ccc(Cl)cc3)c3ccccc3-n3c(C)nnc32)s1 (stereo in doubt) [Example 42]	IC50	50 nM
Cc1nnc2n1-c1ccccc1C(c1ccc(Cl)cc1)=CC2Cc1nc(C2CC2)no1 (stereo in doubt)	IC50	50 nM

Kindly review the next compound as well.
Could you share which IC50 value was measured for Cc1nnc2n1-c1ccccc1C(c1ccc(Cl)cc1)=CC2CC(=O)N1CC(F)C1 (stereo not shown) [Example 16] ? 220 nM
